Provenance of the data: ChEMBL document CHEMBL1201862

System: LXFL 529
PROTOCOL DETAILS: NCI tumour cell line growth inhibition, 48 h
Active and inactive are the calls of the source. No stated cut-off is given here; in the data, active = GI50 up to about 1.1 µM and inactive = higher.
MEASURED METRIC: GI50

Consider the worked cases shown below.
CC(=O)OCCOCNC(=S)N/N=C/c1ccc2ccccc2n1
33.3 µM (inactive)
Cc1cccc(C)c1NC(=O)CCC(=O)NC(N)=S
> 100 µM (inactive)
Cc1nc(Nc2ccccc2)sc1C(=O)NNC(N)=O
> 100 µM (inactive)
O=C(CSc1nc(-c2ccccc2)c(-c2ccccc2)[nH]1)N/N=C/c1ccc([N+](=O)[O-])cc1
20.4 µM (inactive)
CCC(COC(=O)CC[C@@H](NC(=O)C(C)NC(=O)C(C)OC1C(O)C(CO)OC(OCc2ccccc2)C1NC(C)=O)C(N)=O)NC1c2ccccc2Nc2cccc([N+](=O)[O-])c21 (stereo partly specified)
41.8 µM (inactive)
CC1CC2OC(=O)C3CC(O)CC(=C23)[C@@]12C[C@@H](c1ccoc1)OC2=O (stereo partly specified)
> 100 µM (inactive)

Lab note: `C#CC[C@]12CC(=O)CC[C@H]1CC(=O)C2` gave GI50 of > 100 µM (inactive)

* * *

Test system: UO-31
PROTOCOL DETAILS: NCI tumour cell line growth inhibition, 48 h
Active and inactive are the calls of the source. Rule as the data show it: active = GI50 up to about 1.1 µM and inactive = higher.
Lab note: assign the record to one of active, inactive

CCCC(C)c1c(Cl)nc(Cl)nc1Cl (stereo unspecified)
inactive
Oc1ccc(SCc2cc(O)ccc2O)cc1
inactive
CCOC(=O)C(=[N+]=[N-])C(=O)Nc1nn2nnnc2c2ccccc12
inactive
CO[C@@H]1C[C@H](OC(N)=O)[C@@H]2C=C[C@@H]3/C=C(C)/C=C/[C@@H](C)[C@H](/C(C)=C/[C@@H](C)NC(C)=O)OC(=O)/C=C/C=C(C)\C=C\[C@]3(C)[C@@H]2C1 [SUPERSTOLIDE B]
active
Brc1ccc(/N=N/N2CCCCC2)cc1
inactive

Req: # fetch the recorded call for Cc1ccc(C)c(C2NC(=O)c3ccccc3N2)c1 (stereo unspecified) here
Resp: inactive

Req: # fetch the recorded call for COc1ccc(/C=C2\CCC(CCN3CCOCC3)C2=O)cc1 (stereo unspecified) here
Resp: inactive

Req: # fetch the recorded call for `COc1ccc(Cc2nc3cc(Cl)ccc3o2)cc1` here
Resp: inactive

Req: # fetch the recorded call for `COc1cc(Nc2cc(Cl)cc(Cl)c2)nc(N)n1` here
Resp: inactive

Req: # fetch the recorded call for Cc1cc(C)c(N[S+]([O-])c2cccc(C(F)(F)F)c2)c(C)c1 (stereo unspecified) here
Resp: inactive

Req: # fetch the recorded call for `COc1c(C2(c3ccc(F)cc3)SCCCS2)c(=O)c1=O` here
Resp: inactive

* * *

Tested on: CCRF-CEM
PROTOCOL DETAILS: NCI tumour cell line growth inhibition, 48 h
Active and inactive are the calls of the source. No stated cut-off is given here; in the data, active = GI50 up to about 1.1 µM and inactive = higher.
Lab note: assign the record to one of active, inactive

Req: # fetch the recorded call for `COc1ccc2c(c1)c1c(n2CCN2CCOCC2)-c2ccccc2CC1` here
Resp: inactive

Req: # fetch the recorded call for `Cc1cc2c(c(C(=O)NCCC(=O)O)c1)Oc1c(cc(C)cc1C(=O)NCCC(=O)O)S2` here
Resp: inactive

Req: # fetch the recorded call for `CCOC(=O)c1ccc(/N=C2\SC(=S)N(c3ccc(F)cc3)\C2=N/c2ccc(C(=O)OCC)cc2)cc1` here
Resp: inactive

Req: # fetch the recorded call for C[C@@H]1[C@@H](C)C(c2ccccc2)O[Si]1(C(C)(C)C)C(C)(C)C (stereo partly specified) here
Resp: inactive

Req: # fetch the recorded call for `O=P1(Oc2ccc(Cl)cc2Cl)Oc2cc3ccccc3cc2O1` here
Resp: inactive

Req: # fetch the recorded call for `Cc1ccc(Cc2n[nH]c(=O)[nH]2)cc1` here
Resp: inactive

Req: # fetch the recorded call for `CC(=O)OC(OC(C)=O)c1c2ccccc2cc2ccccc12` here
Resp: inactive

Req: # fetch the recorded call for `O=C(N/N=C\c1ccc([N+](=O)[O-])s1)c1ccncc1` here
Resp: inactive

Req: # fetch the recorded call for CO[C@@H]1C[C@H](OC(N)=O)[C@@H]2C=C[C@@H]3/C=C(C)/C=C/[C@@H](C)[C@H](/C(C)=C/[C@@H](C)NC(C)=O)OC(=O)/C=C/C=C(C)\C=C\[C@]3(C)[C@@H]2C1 [SUPERSTOLIDE B] here
Resp: active

Req: # fetch the recorded call for `CCOP(=O)(OCC)/C(C#N)=C/c1cccn1C` here
Resp: inactive

Req: # fetch the recorded call for `Cc1cc(C)n(CCNCCn2nc(C)cc2C)n1` here
Resp: inactive
